Test system: Escherichia coli TOP10
Test: shrunken log2 fold change of peptide-encoding DNA abundance (4.5 h post-induction vs induction); higher = less antimicrobial activity (less host growth inhibition)
Conditions: time post-induction: 4.5 h; library: site-saturation at positions 5, 18, 19, 20
reported.metric: shrunken log2 fold change
Provide a numeric answer; units are not to be included.

Field: example entries. Status: answers known.
RRIRMRPPRLPRPRPRPTDIPRP | 0.501
RRIRDRPPRLPRPRPRPSSFPRP | -0.178

### Prompt // returns reported shrunken log2 fold change for input `RRIRNRPPRLPRPRPRPFPQPRP`
### Response -0.186

### Prompt Param item = `RRIRMRPPRLPRPRPRPASGPRP` ; retrieve measured shrunken log2 fold change.
### Response 0.652

### Prompt Looking for the measured shrunken log2 fold change of `RRIRGRPPRLPRPRPRPNLAPRP` , can you help?
### Response 0.961

### Prompt Give its shrunken log2 fold change value. Item: `RRIRWRPPRLPRPRPRPGKWPRP`
### Response 0.202

====

Tested on: Escherichia coli TOP10
Assay: shrunken log2 fold change of peptide-encoding DNA abundance (4.5 h post-induction vs induction); higher = less antimicrobial activity (less host growth inhibition)
Details: time post-induction: 4.5 h; library: site-saturation at positions 5, 18, 19, 20
Lab note: compare shrunken log2 fold change against 0.05. Equal or greater, write True. Smaller, write False.

RRIRARPPRLPRPRPRPCNKPRP | False

### Prompt Could you verify whether the entry `RRIRERPPRLPRPRPRPHGQPRP` shows shrunken log2 fold change of no less than 0.05?
### Response False

====

System: Escherichia coli TOP10
Assay: shrunken log2 fold change of peptide-encoding DNA abundance (4.5 h post-induction vs induction); higher = less antimicrobial activity (less host growth inhibition)
Settings: time post-induction: 4.5 h; library: site-saturation at positions 5, 18, 19, 20
Items are presented alongside their recorded shrunken log2 fold change.
Write no unit; give the number alone.

RRIRLRPPRLPRPRPRPSLFPRP | -0.373
RRIRDRPPRLPRPRPRPDCVPRP | 0.381

### Prompt Sample `RRIRLRPPRLPRPRPRPAAHPRP` — what was its shrunken log2 fold change?
### Response 0.163

### Prompt Look up shrunken log2 fold change: `RRIRYRPPRLPRPRPRPLMAPRP`
### Response -0.681

### Prompt Any idea what shrunken log2 fold change was measured for `RRIRGRPPRLPRPRPRPKWHPRP` ?
### Response 0.542

### Prompt What value of shrunken log2 fold change has been reported for the following sequence? `RRIRMRPPRLPRPRPRPTCHPRP`
### Response 0.317

### Prompt Could you share which shrunken log2 fold change value was measured for `RRIRHRPPRLPRPRPRPPYEPRP` ?
### Response -0.486

====

Listing: shrunken log2 fold change of selected sequences
Tested on: Escherichia coli TOP10;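 further: peptides expressed intracellularly from a pBAD plasmid library in pooled LB shake-flask culture, induced with 0.3% L-arabinose, DNA abundance read by NGS, three biological replicates, DESeq2 with apeglm shrinkage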
Assay: shrunken log2 fold change of peptide-encoding DNA abundance (4.5 h post-induction vs induction); higher = less antimicrobial activity (less host growth inhibition)
Details: time post-induction: 4.5 h; library: site-saturation at positions 5, 18, 19, 20
Reply with just the number.

These recorded examples may help you get a feel for the data.
RRIRARPPRLPRPRPRPNPQPRP | 0.002
RRIRQRPPRLPRPRPRPYFSPRP | -0.451
RRIRIRPPRLPRPRPRPTGWPRP | 0.19

Consider now this further sequence.
### Prompt I have this sequence here, `RRIRHRPPRLPRPRPRPAAHPRP` , and I need its recorded shrunken log2 fold change.
### Response 0.274
